Value source: patent US20170253656A1

# Subject of test: T1, hu-CD74 antigen (R&D SYSTEMS catalog #3590-CD-050) (human, UniProt P04233-2 73-232, limits assumed)
# T1 construct: Bought antigen; also called rhCD74; human CD74
# T1 sequence (looked up): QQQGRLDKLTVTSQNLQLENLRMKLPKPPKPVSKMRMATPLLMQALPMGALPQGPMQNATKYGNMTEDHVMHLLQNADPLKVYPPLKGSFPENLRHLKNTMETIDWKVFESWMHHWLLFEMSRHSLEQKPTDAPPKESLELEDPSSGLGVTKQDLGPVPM
# Measurement description: SPR (Biacore T200), captured on anti-human Fc, rhCD74 analyte
Result type: kon (M⁻¹ s⁻¹)
The reply should contain only the number, in M⁻¹ s⁻¹.

# example entries with known answers
Binder	Units of measure	kon
1251-E06 heavy chain paired with VL SEQ ID NO: 272 (antibody, V domains shown) VH: QVQLVESGGGVVQPGRSLRLSCAASGFTFDSYGMHWVRQAPDKGLEWVAVIWYDGSNKVYADSVKGRFTISRDNSKNTLYLQMNSLRAEDTAVYYCARGGMVGQGAMFGLDVWGQGTTVTVSS VL: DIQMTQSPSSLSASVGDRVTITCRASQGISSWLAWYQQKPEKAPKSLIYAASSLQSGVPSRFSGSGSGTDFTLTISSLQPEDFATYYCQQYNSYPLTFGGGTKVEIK	M⁻¹ s⁻¹	1.13e+06
1251-B09 heavy chain paired with VL SEQ ID NO: 272 (antibody, V domains shown) VH: QVQLVESGGGVVQPGRSLRLSCAASGFNFSDYGMHWVRQAPDKGLEWVAVTWYDGSREYYADSVKGRFTISRDNSKNTLYLQMNSLRAEDTAVYYCARGGTLVHGALYGNDVWGQGTTVTVSS VL: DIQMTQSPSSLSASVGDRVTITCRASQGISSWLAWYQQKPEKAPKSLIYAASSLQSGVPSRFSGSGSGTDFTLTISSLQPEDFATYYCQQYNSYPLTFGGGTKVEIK	M⁻¹ s⁻¹	968000

Give its kon value. Item: 1251-B08 heavy chain paired with VL SEQ ID NO: 272 (antibody, V domains shown) VH: QVQLVESGGGVVQPGRSLRLSCAASGFNFSDYGMHWVRQAPDKGLEWVAVIWYDGSISYYADSVKGRFTISRDNSKNTLYLQMNSLRAEDTAVYYCARGGTVEHGAVYGTDVWGQGATVTVSS VL: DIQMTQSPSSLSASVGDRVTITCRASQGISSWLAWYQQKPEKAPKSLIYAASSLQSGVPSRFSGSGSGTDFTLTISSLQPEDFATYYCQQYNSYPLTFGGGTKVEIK
475000

Now the binder 1251-A03 heavy chain paired with VL SEQ ID NO: 272 (antibody, V domains shown) VH: QVQLVESGGGVVQPGRSLRLSCAASGFAFSDHGMHWVRQAPDKGLEWVAVIWYDGSHKIYADSVKGRFTISRDNSKNTLYLQMNSLRAEDTAVYYCARGGSLAGGAVYGTDVWGQGTTVTVSS VL: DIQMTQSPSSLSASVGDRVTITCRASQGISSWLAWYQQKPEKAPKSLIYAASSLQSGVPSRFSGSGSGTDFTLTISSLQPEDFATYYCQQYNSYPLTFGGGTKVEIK
1.65e+06

Now the binder 1251-C03 heavy chain paired with VL SEQ ID NO: 272 (antibody, V domains shown) VH: QVQLVESGGGVVQPGRSLRLSCAASGFNFSSYGMHWVRQAPDKGLEWVAVIWYDGSIKNYADSVKGRFTISRDNSKNTLYLQMNSLRAEDTAVYYCARGGALMRGEFSGHDVWGQGTTVTVSS VL: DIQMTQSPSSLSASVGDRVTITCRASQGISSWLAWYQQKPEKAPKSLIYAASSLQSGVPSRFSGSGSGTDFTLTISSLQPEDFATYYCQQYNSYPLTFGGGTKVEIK
722000
